Test system: RARg homodimer (NR concentration 270 nM)
assay explanation: PBM binding z-score (relative to random genomic background probes); higher = stronger binding; sequences stand for … in GC…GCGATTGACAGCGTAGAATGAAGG
Listing: PBM binding z-score of selected sequences

Use these answered entries as a reference point.
monomer sequence: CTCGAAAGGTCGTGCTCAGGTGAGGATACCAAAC
reported: 3.74
//
monomer sequence: ACAATTAGTTGACTTAGGGCAACCGATACGACGC
reported: 0.936

Test system RARg homodimer (NR concentration 270 nM); read-out PBM binding z-score; what value for `CCTACTGCGCCAAAGGTCATTGATTCCAATGCTC` ?
4.69

Test system RARg homodimer (NR concentration 270 nM); read-out PBM binding z-score; what value for `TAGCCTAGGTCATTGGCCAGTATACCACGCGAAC` ?
3.92

Test system RARg homodimer (NR concentration 270 nM); read-out PBM binding z-score; what value for `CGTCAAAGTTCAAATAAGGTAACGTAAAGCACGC` ?
6.52

Test system RARg homodimer (NR concentration 270 nM); read-out PBM binding z-score; what value for `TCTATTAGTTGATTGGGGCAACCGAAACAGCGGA` ?
0.336

Test system RARg homodimer (NR concentration 270 nM); read-out PBM binding z-score; what value for `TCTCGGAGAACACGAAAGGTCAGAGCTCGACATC` ?
3.24
